meta.source: PubChem BioAssay AID1259407

Test system: CCRIS mutagenicity, Ames/micronucleus/aberration tests
METHOD: CCRIS mutagenicity studies
EXPERIMENTAL_CONDITIONS: Test System: AMES SALMONELLA TYPHIMURIUM; Strain/Indicator: TA98; Metabolic Activation: RAT, LIVER, S-9, PCB; Method: PREINCUBATION
Calls of active or inactive are those of the source. How the calls were made is not given here.
Thanks in advance; please answer with one of these: Yes (active), No (inactive)

Identify the outcome logged in this assay for the compound shown: C[C@H](CCC(=O)O)[C@H]1CC[C@H]2[C@@H]3CC[C@@H]4C[C@@H](O)CC[C@]4(C)[C@H]3C[C@H](O)[C@]12C
No

Identify the outcome logged in this assay for the compound shown: COc1c(CO)c(O)cc2c1C(=O)c1ccccc1C2=O
No

Identify the outcome logged in this assay for the compound shown: Cc1c(O)cc2c(c1O)C(=O)c1cccc(O)c1C2=O
Yes

Identify the outcome logged in this assay for the compound shown: NNc1nncc2ccncc12
Yes

Identify the outcome logged in this assay for the compound shown: Cc1ccc2c(c1)C(=O)c1cc(O)ccc1C2=O
Yes

Identify the outcome logged in this assay for the compound shown: N#CCCC(=O)/C=C/c1ccc(C(=O)O)cc1
No

Identify the outcome logged in this assay for the compound shown: Clc1nncc2cccnc12
Yes

Identify the outcome logged in this assay for the compound shown: CCOCc1c(O)cc2c(c1O)C(=O)c1ccccc1C2=O
Yes

Identify the outcome logged in this assay for the compound shown: Cc1cc(O)c2c(c1O)C(=O)c1ccccc1C2=O
Yes

Identify the outcome logged in this assay for the compound shown: Nc1nc(-c2cccc([N+](=O)[O-])c2)nc2c1ncn2[C@@H]1O[C@H](CO)[C@@H](O)[C@H]1O
No

Identify the outcome logged in this assay for the compound shown: CN(C)C(=N)N(C)C
No

Identify the outcome logged in this assay for the compound shown: O=C1c2ccccc2C(=O)c2c1cc(O[C@@H]1O[C@H](CO[C@@H]3OC[C@@H](O)[C@H](O)[C@H]3O)[C@@H](O)[C@H](O)[C@H]1O)c(CO)c2O
No

Identify the outcome logged in this assay for the compound shown: O=C(CBr)c1ccccc1
No

Identify the outcome logged in this assay for the compound shown: ClCc1c2ccccc2cc2ccccc12
Yes

Identify the outcome logged in this assay for the compound shown: C1CCNC1
No

Identify the outcome logged in this assay for the compound shown: Nc1ccccc1N
Yes

Identify the outcome logged in this assay for the compound shown: Nc1cccc2nc3c(N)cccc3nc12
No

Identify the outcome logged in this assay for the compound shown: CCCCC1C(=O)N(c2ccccc2)N(c2ccc(O)cc2)C1=O (centres undefined)
No

Identify the outcome logged in this assay for the compound shown: c1cnccn1
No

Identify the outcome logged in this assay for the compound shown: CN(C)Cc1ccccc1
No

Identify the outcome logged in this assay for the compound shown: CC(CCN(C)C)N(C)C (centres undefined)
No

Identify the outcome logged in this assay for the compound shown: Cc1nc2ccc(N)cc2nc1C
Yes

Identify the outcome logged in this assay for the compound shown: O=C(CBr)c1ccc(Br)cc1
No

Identify the outcome logged in this assay for the compound shown: CC(c1ccccc1)N(C)C (centres undefined)
No

Identify the outcome logged in this assay for the compound shown: Cc1ccc(N=Nc2ccc(C)c(N)c2)cc1N
Yes

Identify the outcome logged in this assay for the compound shown: COc1cc(-c2ccc(N)c(OC)c2)ccc1N
Yes

Identify the outcome logged in this assay for the compound shown: O=C1c2ccccc2C(=O)c2c1ccc(O)c2O
No

Identify the outcome logged in this assay for the compound shown: N#CCCC(=O)CCc1ccc(C(=O)O)cc1
No

Identify the outcome logged in this assay for the compound shown: C1CN2CCN1CC2
No
